# MEASURED ON: Alpha-2C adrenergic receptor (Homo sapiens)
# ASSAY SUMMARY: compounds altering alpha2C-coupled GIRK flux – cell-based, HEK293 alpha2C/GIRK1/2, thallium flux, primary screen (AID 624);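 also: slope of fluorescence ratio to pre-addition baseline per second over 15 to 24 s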
# STATED CONDITIONS: thallium flux BTC fluorescence, at 10 µM, actives lie on both sides
Measured slope values are reported for all entries that follow.

MOLECULE	MEASURED ON	slope
CCOCCCNC(=O)CCNS(=O)(=O)c1ccc(C)cc1	Alpha-2C adrenergic receptor (Homo sapiens)	0.00305
CN(C)CCC(c1ccc(Br)cc1)c1ccccn1 (stereo unspecified)	Alpha-2C adrenergic receptor (Homo sapiens)	0.00532
COc1cc(C2Oc3cc(C4Oc5cc(O)cc(O)c5C(=O)C4O)ccc3OC2CO)ccc1O (stereo unspecified)	Alpha-2C adrenergic receptor (Homo sapiens)	0.00477
CCn1cc(C(=O)O)c(=O)c2cnc(N3CCNCC3)nc21	Alpha-2C adrenergic receptor (Homo sapiens)	0.00483
Cc1ccc2oc(=O)c3cnn(CC(=O)N4CCCc5ccccc54)c3c2c1	Alpha-2C adrenergic receptor (Homo sapiens)	0.00798
Cc1cn([C@H]2C=C[C@@H](CO)O2)c(=O)[nH]c1=O	Alpha-2C adrenergic receptor (Homo sapiens)	0.00508
C1CCC2=NCCCN2CC1	Alpha-2C adrenergic receptor (Homo sapiens)	0.00592
CC(=O)[C@H]1CC[C@H]2[C@@H]3CCC4=CC(=O)CC[C@]4(C)[C@H]3CC[C@]12C	Alpha-2C adrenergic receptor (Homo sapiens)	0.00331
CC(C)(C)NC[C@H](O)COc1nsnc1N1CCOCC1	Alpha-2C adrenergic receptor (Homo sapiens)	0.00458
COc1ccc(OC)c(C2=NOC(C(=O)Nc3c(C)n(C)n(-c4ccccc4)c3=O)C2)c1 (stereo unspecified)	Alpha-2C adrenergic receptor (Homo sapiens)	0.0073
N[C@@H](Cc1cc(I)c(Oc2ccc(O)c(I)c2)c(I)c1)C(=O)O	Alpha-2C adrenergic receptor (Homo sapiens)	0.00387
